Here, each record is paired with measured pIC50 data.
# tgt: Lethal factor (Bacillus anthracis, UniProt P15917)
# Sequence (P15917 whole entry): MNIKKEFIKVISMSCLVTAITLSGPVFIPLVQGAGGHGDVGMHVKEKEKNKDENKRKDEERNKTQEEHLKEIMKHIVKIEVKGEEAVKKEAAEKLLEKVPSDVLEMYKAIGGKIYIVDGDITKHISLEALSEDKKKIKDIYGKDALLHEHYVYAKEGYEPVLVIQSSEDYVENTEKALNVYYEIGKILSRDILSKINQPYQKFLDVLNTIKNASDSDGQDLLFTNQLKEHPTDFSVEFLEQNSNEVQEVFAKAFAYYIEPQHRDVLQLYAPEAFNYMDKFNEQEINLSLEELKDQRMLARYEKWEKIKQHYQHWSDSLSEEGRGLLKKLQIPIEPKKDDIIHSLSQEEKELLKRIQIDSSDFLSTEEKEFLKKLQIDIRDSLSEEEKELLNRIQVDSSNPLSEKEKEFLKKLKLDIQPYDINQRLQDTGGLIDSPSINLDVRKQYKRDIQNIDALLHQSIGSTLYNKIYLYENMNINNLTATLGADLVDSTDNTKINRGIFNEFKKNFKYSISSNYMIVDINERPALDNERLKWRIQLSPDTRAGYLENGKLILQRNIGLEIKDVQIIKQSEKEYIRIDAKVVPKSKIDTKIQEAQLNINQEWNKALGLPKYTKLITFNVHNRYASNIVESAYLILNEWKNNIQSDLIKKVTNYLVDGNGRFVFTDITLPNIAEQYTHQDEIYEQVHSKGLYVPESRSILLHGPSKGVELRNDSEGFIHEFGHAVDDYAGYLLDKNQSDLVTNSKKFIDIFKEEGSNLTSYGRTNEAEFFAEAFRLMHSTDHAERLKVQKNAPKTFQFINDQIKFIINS
Interpret pIC50 as the negative base-10 log of the concentration measured in mol/L.

Guide cases for pIC50, answers given:
c1cc(C2=NCCN2)ccc1Oc1ccc(-c2cc3ccc(C4=NCCN4)cc3[nH]2)cc1	4.37
c1cc(C2=NCCN2)ccc1Oc1ccc(-c2cc3ccc(C4=NCCN4)cc3s2)cc1	4.74
CN(C)CC/N=C(\N)c1ccc(Oc2ccc(-c3cc4ccc(/C(N)=N/CCN(C)C)cc4[nH]3)cc2)cc1	4.55
c1cc(C2=NCCN2)ccc1Oc1ccc(-c2cc3ccc(C4=NCCN4)cc3[nH]2)nc1	4.26
Clc1ccc2cc(-c3ccc(Oc4ccc(C5=NCCN5)cc4)cc3)[nH]c2c1	4.29

Then there is this compound:
Consider the compound `N=C(N)c1ccc(Oc2ccc(-c3cc4ccc(C(=N)N)cc4[nH]3)cc2)cc1` and give its measured pIC50.
4.46
